Kindly supply the reported TGI values for the records listed here.
Test system: M19-MEL melanoma
assay: NCI tumour cell line growth inhibition, 48 h

Hi, could you look up TGI for each item in my list?
1. CCOc1ncnc2ccc(Cl)c(I)c12
2. CCN(CC)CCC(=O)N1C/C(=C/c2ccccc2)C(=O)/C(=C\c2ccccc2)C1
3. COc1ccc(NS(=O)(=O)c2ccc(N=C3C=C(Nc4ccc(S(=O)(=O)Nc5ccc(OC)nn5)cc4)C(=O)c4ccccc43)cc2)nn1
4. CC(=O)OC1(C#N)CC2OC1C1N=NN(C(=O)OC(C)(C)C)C21 (stereo unspecified)
5. COc1ccc2c(c1)C=C(C(C)(C)C)NS2(=O)=O
6. COc1ccc(/C=C2\CCc3ccccc3C2=O)cc1OC

1. > 100 µM
2. 3.68 µM
3. 30.6 µM
4. > 100 µM
5. > 100 µM
6. > 100 µM
